# Tested on: ARPE-19
# assay.overview: Cytotoxicity against human ARPE19 cells measured after 96 hrs by MTT assay
# Type: cell-based
# reported.conditions: ARPE-19, 96 h
Overview of recorded IC50 for various compounds
Give just the numeric value; nM need not be written.

Solved cases (2 shown):
[
  {
    "compound.smiles": "CC1=C(CO[Si](C)(C)C(C)C)C(=O)O[C@@H]([C@@H](C)[C@H]2CC[C@H]3[C@@H]4C[C@H]5O[C@]56[C@@H](O)C=CC(=O)[C@]6(C)[C@H]4CC[C@]23C)C1",
    "IC50 / nM": 6500
  },
  {
    "compound.smiles": "CC1=C(CO[Si](C)(C)C(C)C)C(=O)O[C@@H]([C@@H](C)[C@H]2CC[C@H]3[C@@H]4C[C@H]5O[C@]56[C@@H](O)[C@@H](n5ccnc5)CC(=O)[C@]6(C)[C@H]4CC[C@]23C)C1",
    "IC50 / nM": 52
  }
]

Please provide the recorded IC50 for CC[Si](CC)(CC)OCC1=C(C)C[C@H]([C@@H](C)[C@H]2CC[C@H]3[C@@H]4C[C@H]5O[C@]56[C@@H](O)C=CC(=O)[C@]6(C)[C@H]4CC[C@]23C)OC1=O , tested on ARPE-19.
30

Please provide the recorded IC50 for CC1=C(CO)C(=O)O[C@@H]([C@@H](C)[C@H]2CC[C@H]3[C@@H]4C[C@H]5O[C@]56C(=O)C=CC(=O)[C@]6(C)[C@H]4CC[C@]23C)C1 , tested on ARPE-19.
32

Please provide the recorded IC50 for C=C[Si](C)(C)OCC1=C(C)C[C@H]([C@@H](C)[C@H]2CC[C@H]3[C@@H]4C[C@H]5O[C@]56[C@@H](O[Si](C)(C)C=C)C=CC(=O)[C@]6(C)[C@H]4CC[C@]23C)OC1=O , tested on ARPE-19.
92

Please provide the recorded IC50 for CCCCCCCC[Si](C)(C)OCC1=C(C)C[C@H]([C@@H](C)[C@H]2CC[C@H]3[C@@H]4C[C@H]5O[C@]56[C@@H](O)C=CC(=O)[C@]6(C)[C@H]4CC[C@]23C)OC1=O , tested on ARPE-19.
32

Please provide the recorded IC50 for CC1=C(CO[Si](c2ccccc2)(c2ccccc2)C(C)(C)C)C(=O)O[C@@H]([C@@H](C)[C@H]2CC[C@H]3[C@@H]4C[C@H]5O[C@]56[C@@H](O)C=CC(=O)[C@]6(C)[C@H]4CC[C@]23C)C1 , tested on ARPE-19.
2300

Please provide the recorded IC50 for CC1=C(CO[Si](C(C)C)(C(C)C)C(C)C)C(=O)O[C@@H]([C@@H](C)[C@H]2CC[C@H]3[C@@H]4C[C@H]5O[C@]56C(=O)C=CC(=O)[C@]6(C)[C@H]4CC[C@]23C)C1 , tested on ARPE-19.
37.5

Please provide the recorded IC50 for CCCC[Si](CCCC)(CCCC)OCC1=C(C)C[C@H]([C@@H](C)[C@H]2CC[C@H]3[C@@H]4C[C@H]5O[C@]56[C@@H](O)C=CC(=O)[C@]6(C)[C@H]4CC[C@]23C)OC1=O , tested on ARPE-19.
260

Please provide the recorded IC50 for CC1=C(CO[Si](C)(C)c2ccccc2)C(=O)O[C@@H]([C@@H](C)[C@H]2CC[C@H]3[C@@H]4C[C@H]5O[C@]56C(=O)C=CC(=O)[C@]6(C)[C@H]4CC[C@]23C)C1 , tested on ARPE-19.
2300

Please provide the recorded IC50 for CC1=C(CO[Si](C)(c2ccccc2)c2ccccc2)C(=O)O[C@@H]([C@@H](C)[C@H]2CC[C@H]3[C@@H]4C[C@H]5O[C@]56C(=O)C=CC(=O)[C@]6(C)[C@H]4CC[C@]23C)C1 , tested on ARPE-19.
2050

Please provide the recorded IC50 for CCC[Si](CCC)(CCC)OCC1=C(C)C[C@H]([C@@H](C)[C@H]2CC[C@H]3[C@@H]4C[C@H]5O[C@]56[C@@H](O)C=CC(=O)[C@]6(C)[C@H]4CC[C@]23C)OC1=O , tested on ARPE-19.
30
